# target: CYP2D6 (Homo sapiens)
# Sequence (P10635 whole entry): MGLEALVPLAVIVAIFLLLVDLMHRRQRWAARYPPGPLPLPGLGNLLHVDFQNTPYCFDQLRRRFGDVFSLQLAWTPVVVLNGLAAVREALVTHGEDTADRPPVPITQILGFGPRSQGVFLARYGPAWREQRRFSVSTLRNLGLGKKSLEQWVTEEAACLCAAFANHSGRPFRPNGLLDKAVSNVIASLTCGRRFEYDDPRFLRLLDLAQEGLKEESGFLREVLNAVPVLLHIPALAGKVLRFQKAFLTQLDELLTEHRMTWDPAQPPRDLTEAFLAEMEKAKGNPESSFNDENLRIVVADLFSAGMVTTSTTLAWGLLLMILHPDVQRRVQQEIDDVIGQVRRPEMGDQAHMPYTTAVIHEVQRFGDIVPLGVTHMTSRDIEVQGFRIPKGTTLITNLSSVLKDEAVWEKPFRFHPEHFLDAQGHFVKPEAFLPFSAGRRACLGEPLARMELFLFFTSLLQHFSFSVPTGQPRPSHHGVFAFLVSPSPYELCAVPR
property-label: IC50 (µM)

{"chem-smiles": "O=C1C=CC(=C(c2ccc(O)cc2)c2c(-c3ccc(O)cc3)ccc(CO)c2C#Cc2ccc(O)cc2)C=C1", "target": "CYP2D6 (Homo sapiens)", "property-label": "IC50", "unit-of-measurement": "µM", "recorded-measurement": 5.8}

----------
Listing of recorded pIC50 by entry.
# target: UGT1A1 (Homo sapiens, UniProt P22309)
# Sequence (P22309 26-533): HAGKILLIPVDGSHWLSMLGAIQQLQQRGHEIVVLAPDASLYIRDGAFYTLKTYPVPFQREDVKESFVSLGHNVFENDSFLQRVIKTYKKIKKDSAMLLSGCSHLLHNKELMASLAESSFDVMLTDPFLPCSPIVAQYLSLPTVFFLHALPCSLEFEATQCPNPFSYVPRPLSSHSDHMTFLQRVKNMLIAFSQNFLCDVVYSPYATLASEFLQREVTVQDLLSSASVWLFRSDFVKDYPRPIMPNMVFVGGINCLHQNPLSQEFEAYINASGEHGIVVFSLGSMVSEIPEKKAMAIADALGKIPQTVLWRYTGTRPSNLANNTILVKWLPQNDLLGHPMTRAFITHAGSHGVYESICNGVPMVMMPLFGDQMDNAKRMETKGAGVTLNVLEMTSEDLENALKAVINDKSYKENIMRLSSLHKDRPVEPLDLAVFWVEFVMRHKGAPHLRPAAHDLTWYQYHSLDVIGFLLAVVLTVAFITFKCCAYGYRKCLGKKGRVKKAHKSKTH
# protocol-text: UGT1A1 inhibition (SN-38 glucuronidation) in human liver microsomes, cocktail LC-MS/MS
# conditions: IC50 UGT isoform 1A1, HLMs 0.25 mg/mL with alamethicin, SN-38 0.5 μM
pIC50: −log10 of the molar value.
property-label: pIC50

{"chem-smiles": "COc1ccc(C(=C2C=CC(=O)C=C2)c2c(-c3ccc(O)cc3)ccc(CO)c2C#Cc2ccc(O)cc2)cc1", "property-label": "pIC50", "recorded-measurement": 5.89}
{"chem-smiles": "O=C1C=CC(=C(c2ccc(O)cc2)c2c(-c3ccc(O)cc3)ccc(CO)c2C#Cc2ccc(O)cc2)C=C1", "property-label": "pIC50", "recorded-measurement": 6.00}

----------
# target: CYP2C19 (Homo sapiens, UniProt P33261)
# Sequence (P33261 whole entry): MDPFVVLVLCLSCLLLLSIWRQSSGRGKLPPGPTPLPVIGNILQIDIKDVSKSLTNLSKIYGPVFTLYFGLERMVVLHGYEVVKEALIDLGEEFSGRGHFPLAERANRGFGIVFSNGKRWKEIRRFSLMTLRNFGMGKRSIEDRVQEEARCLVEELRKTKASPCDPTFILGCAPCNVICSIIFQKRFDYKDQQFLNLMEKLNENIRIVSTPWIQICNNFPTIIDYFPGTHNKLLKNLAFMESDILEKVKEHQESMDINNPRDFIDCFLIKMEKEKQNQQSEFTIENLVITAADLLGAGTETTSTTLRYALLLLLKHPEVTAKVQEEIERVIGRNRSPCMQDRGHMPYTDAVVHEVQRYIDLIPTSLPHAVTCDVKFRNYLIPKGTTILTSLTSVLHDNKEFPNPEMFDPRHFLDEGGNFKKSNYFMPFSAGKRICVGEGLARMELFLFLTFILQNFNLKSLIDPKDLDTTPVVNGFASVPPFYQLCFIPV
pIC50: −log10 of the molar value.

{"chem-smiles": "O=C1C=CC(=C(c2ccc(O)cc2)c2c(-c3ccc(O)cc3)ccc(CO)c2C#Cc2ccc(O)cc2)C=C1", "target": "CYP2C19 (Homo sapiens, UniProt P33261)", "pIC50": 5.00}

----------
# System: CYP3A
# protocol-text: CYP3A inhibition (midazolam 1'-hydroxylase) in human liver microsomes, substrate cocktail LC-MS/MS
# Format: in vitro ADME
# conditions: pooled HLMs 0.25 mg/mL, midazolam 5.0 μM, read-out: IC50 P450 isoform 3A
# Procedure: The inhibitory effects of two selaginellins on the metabolism of ten P450 probe substrates were evaluated using previously reported method with minor modification. […] After mixing and centrifugation, aliquots were analyzed by liquid chromatography-tandem mass spectrometry (LC-MS/MS) as previous described. The CYP2J2 inhibitory effects of two selaginellins were also evaluated in pooled HLMs using previously reported method. […]

{"compound": "O=C1C=CC(=C(c2ccc(O)cc2)c2c(-c3ccc(O)cc3)ccc(CO)c2C#Cc2ccc(O)cc2)C=C1 [Selaginellin]", "IC50 at 15 min": "11.7 µM"}

----------
# target: UGT1A3 (Homo sapiens)
# Sequence (P35503 29-534): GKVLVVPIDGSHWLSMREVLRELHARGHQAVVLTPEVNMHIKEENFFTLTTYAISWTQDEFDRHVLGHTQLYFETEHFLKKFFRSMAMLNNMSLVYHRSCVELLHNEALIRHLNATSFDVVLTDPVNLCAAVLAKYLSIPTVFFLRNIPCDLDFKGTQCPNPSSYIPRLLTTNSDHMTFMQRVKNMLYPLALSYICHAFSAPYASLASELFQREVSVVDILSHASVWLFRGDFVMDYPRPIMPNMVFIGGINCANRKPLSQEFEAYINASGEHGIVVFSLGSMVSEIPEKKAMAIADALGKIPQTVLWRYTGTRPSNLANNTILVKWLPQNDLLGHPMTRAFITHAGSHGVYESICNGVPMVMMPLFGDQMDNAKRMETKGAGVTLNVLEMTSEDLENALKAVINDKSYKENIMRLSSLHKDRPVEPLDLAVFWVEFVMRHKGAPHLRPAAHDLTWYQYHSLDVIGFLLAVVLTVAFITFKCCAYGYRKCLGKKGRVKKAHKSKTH
# protocol-text: UGT1A3 inhibition (chenodeoxycholic acid glucuronidation) in human liver microsomes, cocktail LC-MS/MS
# conditions: IC50 UGT isoform 1A3, HLMs 0.25 mg/mL with alamethicin, chenodeoxycholic acid 2.0 μM
property-label: IC50

{"chem-smiles": "COc1ccc(C(=C2C=CC(=O)C=C2)c2c(-c3ccc(O)cc3)ccc(CO)c2C#Cc2ccc(O)cc2)cc1", "recorded-measurement": "3.5 µM"}
{"chem-smiles": "O=C1C=CC(=C(c2ccc(O)cc2)c2c(-c3ccc(O)cc3)ccc(CO)c2C#Cc2ccc(O)cc2)C=C1", "recorded-measurement": "4.7 µM"}

----------
# target: CYP1A2 (Homo sapiens)
# Construct: the incubation mixtures containing pooled HLMs (0.25 mg/mL, H2630, Xenotech); tissue Xenotech H2630; host or cells: pooled human liver microsomes
# Sequence (P05177 whole entry): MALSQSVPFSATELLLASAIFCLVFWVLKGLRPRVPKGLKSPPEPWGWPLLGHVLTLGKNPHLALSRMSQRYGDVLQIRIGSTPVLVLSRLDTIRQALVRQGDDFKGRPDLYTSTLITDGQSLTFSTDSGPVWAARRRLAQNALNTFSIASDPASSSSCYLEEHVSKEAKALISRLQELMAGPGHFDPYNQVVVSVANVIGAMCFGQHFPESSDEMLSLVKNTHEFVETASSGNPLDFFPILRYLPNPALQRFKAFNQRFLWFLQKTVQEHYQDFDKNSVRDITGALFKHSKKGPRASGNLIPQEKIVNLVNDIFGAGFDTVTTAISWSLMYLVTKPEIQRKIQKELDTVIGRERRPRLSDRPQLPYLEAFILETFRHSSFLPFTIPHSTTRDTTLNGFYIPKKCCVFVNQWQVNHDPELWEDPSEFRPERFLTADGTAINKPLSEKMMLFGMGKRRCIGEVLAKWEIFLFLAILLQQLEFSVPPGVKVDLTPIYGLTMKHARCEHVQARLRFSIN
# protocol-text: CYP1A2 inhibition (phenacetin O-deethylase) in human liver microsomes, substrate cocktail LC-MS/MS
# Assay type: in vitro ADME
# conditions: pooled HLMs 0.25 mg/mL, phenacetin 100 μM; read-out: IC50 P450 isoform 1A2
pIC50: −log10 of the molar value.

{"chem-smiles": "COc1ccc(C(=C2C=CC(=O)C=C2)c2c(-c3ccc(O)cc3)ccc(CO)c2C#Cc2ccc(O)cc2)cc1", "target": "CYP1A2 (Homo sapiens)", "pIC50": "< 4.30"}

----------
Listing of recorded IC50 by entry.
# target: CYP2C9 (Homo sapiens, UniProt P11712)
# Construct: the incubation mixtures containing pooled HLMs (0.25 mg/mL, H2630, Xenotech); tissue Xenotech H2630
# Sequence (P11712 whole entry): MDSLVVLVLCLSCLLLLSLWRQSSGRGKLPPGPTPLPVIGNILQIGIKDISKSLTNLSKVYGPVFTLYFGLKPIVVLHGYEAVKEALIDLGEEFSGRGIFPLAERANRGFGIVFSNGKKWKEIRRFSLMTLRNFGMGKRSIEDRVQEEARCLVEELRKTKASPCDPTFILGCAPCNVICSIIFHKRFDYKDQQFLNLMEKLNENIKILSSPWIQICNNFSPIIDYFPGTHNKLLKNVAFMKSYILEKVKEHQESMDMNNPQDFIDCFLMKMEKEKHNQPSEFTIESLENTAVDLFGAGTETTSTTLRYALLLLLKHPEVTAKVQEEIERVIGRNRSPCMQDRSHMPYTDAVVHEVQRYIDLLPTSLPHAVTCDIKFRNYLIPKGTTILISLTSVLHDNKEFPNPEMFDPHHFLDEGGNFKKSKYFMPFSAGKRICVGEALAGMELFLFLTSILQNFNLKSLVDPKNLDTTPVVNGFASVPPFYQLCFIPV
# protocol-text: CYP2C9 inhibition (tolbutamide 4-hydroxylase) in human liver microsomes, substrate cocktail LC-MS/MS
# conditions: IC50 P450 isoform 2C9, pooled HLMs 0.25 mg/mL, tolbutamide 100 μM
property-label: IC50

{"chem-smiles": "COc1ccc(C(=C2C=CC(=O)C=C2)c2c(-c3ccc(O)cc3)ccc(CO)c2C#Cc2ccc(O)cc2)cc1", "property-label": "IC50", "recorded-measurement": "3900 nM"}
{"chem-smiles": "O=C1C=CC(=C(c2ccc(O)cc2)c2c(-c3ccc(O)cc3)ccc(CO)c2C#Cc2ccc(O)cc2)C=C1", "property-label": "IC50", "recorded-measurement": "1200 nM"}

----------
# target: CYP2A6 (Homo sapiens, UniProt P11509)
# Sequence (P11509 whole entry): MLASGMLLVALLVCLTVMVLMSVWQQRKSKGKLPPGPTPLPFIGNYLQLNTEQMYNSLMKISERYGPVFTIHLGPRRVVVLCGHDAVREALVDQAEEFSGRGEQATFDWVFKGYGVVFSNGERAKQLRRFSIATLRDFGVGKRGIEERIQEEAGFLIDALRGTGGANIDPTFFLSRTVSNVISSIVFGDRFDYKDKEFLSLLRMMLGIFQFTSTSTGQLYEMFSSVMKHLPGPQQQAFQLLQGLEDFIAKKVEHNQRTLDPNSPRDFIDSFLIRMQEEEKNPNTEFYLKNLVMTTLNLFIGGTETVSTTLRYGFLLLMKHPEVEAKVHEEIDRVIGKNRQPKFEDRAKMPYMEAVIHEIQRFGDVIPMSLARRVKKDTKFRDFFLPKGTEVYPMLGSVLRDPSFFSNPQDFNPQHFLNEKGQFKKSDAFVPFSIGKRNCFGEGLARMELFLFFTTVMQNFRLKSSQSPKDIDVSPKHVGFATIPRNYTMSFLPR
pIC50: −log10 of the molar value.
property-label: pIC50

{"chem-smiles": "O=C1C=CC(=C(c2ccc(O)cc2)c2c(-c3ccc(O)cc3)ccc(CO)c2C#Cc2ccc(O)cc2)C=C1", "recorded-measurement": "< 4.30"}

----------
# System: CYP3A
# protocol-text: CYP3A inhibition (midazolam 1'-hydroxylase) in human liver microsomes, substrate cocktail LC-MS/MS
# Format: in vitro ADME
property-label: IC50 at 15 min

{"chem-smiles": "COc1ccc(C(=C2C=CC(=O)C=C2)c2c(-c3ccc(O)cc3)ccc(CO)c2C#Cc2ccc(O)cc2)cc1", "target": "CYP3A", "recorded-measurement": "> 50 µM"}

----------
# target: UGT2B7 (Homo sapiens, UniProt P16662)
# Sequence (P16662 24-529): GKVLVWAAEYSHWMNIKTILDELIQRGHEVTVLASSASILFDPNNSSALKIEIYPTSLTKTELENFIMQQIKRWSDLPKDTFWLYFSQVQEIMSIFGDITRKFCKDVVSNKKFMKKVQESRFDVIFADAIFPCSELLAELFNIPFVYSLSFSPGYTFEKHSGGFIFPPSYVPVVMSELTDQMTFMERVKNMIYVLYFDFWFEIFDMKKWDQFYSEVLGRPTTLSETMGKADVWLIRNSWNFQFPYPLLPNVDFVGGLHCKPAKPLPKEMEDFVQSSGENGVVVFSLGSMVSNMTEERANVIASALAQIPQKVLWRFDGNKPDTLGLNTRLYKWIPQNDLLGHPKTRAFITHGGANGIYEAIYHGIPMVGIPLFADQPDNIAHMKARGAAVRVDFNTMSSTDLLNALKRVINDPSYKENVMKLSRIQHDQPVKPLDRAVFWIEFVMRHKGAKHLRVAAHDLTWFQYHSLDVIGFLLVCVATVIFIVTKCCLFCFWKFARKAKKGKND
pIC50: −log10 of the molar value.

{"compound": "O=C1C=CC(=C(c2ccc(O)cc2)c2c(-c3ccc(O)cc3)ccc(CO)c2C#Cc2ccc(O)cc2)C=C1 [Selaginellin]", "pIC50": 4.81}
{"compound": "COc1ccc(C(=C2C=CC(=O)C=C2)c2c(-c3ccc(O)cc3)ccc(CO)c2C#Cc2ccc(O)cc2)cc1 [Selaginellin M]", "pIC50": 4.98}

----------
# target: UniProt P19224
# Sequence (P19224 27-532): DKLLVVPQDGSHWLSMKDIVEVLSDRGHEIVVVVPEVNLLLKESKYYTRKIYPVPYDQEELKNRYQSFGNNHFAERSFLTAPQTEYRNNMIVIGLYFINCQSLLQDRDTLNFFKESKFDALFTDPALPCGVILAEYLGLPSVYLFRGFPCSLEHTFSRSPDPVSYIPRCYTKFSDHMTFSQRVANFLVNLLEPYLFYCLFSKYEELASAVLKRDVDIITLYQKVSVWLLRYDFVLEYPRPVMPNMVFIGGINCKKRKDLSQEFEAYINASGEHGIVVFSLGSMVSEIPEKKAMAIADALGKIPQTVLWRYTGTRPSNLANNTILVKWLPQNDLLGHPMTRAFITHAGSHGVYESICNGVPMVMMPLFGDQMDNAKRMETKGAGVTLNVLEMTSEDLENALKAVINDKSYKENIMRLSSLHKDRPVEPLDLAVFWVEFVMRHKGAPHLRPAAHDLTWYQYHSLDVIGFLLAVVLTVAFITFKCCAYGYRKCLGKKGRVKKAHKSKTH
pIC50: −log10 of the molar value.
property-label: pIC50

{"chem-smiles": "O=C1C=CC(=C(c2ccc(O)cc2)c2c(-c3ccc(O)cc3)ccc(CO)c2C#Cc2ccc(O)cc2)C=C1", "target": "UniProt P19224", "recorded-measurement": 4.60}

Origin of values: paper PMC6151550
